From: PubChem BioAssay (NCI)

# Tested on: HT29 colon
# protocol_notes: NCI tumour cell line growth inhibition, 48 h; in the data active means GI50 below about 0.43 µM; inactive means the rest
Classes to choose from: active, inactive

Study these solved cases before continuing.
1. O=C(c1ccccc1)c1c(C(F)(F)F)n([O-])c2cc(C(F)(F)F)ccc2[n+]1=O ... inactive
2. C[C@]12CC[C@H]3[C@@H](CC4SC(N)=NC45C/C(=N/NC(N)=O)CC[C@]35C)[C@@H]1CCC2=O (stereo not given in full) ... inactive
3. COc1ccc(/C(C#N)=C/c2cc(OC)c(OC)c(OC)c2)cc1 ... inactive
4. C[C@H]1CNC(=O)c2cnn3ccc(nc23)N[C@H](C)c2cc(F)ccc2O1 ... inactive
5. CC(=O)/C=C/C1=C(c2csc3ccccc23)c2ccccc2CC1 ... inactive
6. O=C1C=Cc2c1ccc1ccccc21 ... inactive
7. CC(C)C(=O)c1c(C(F)(F)F)n([O-])c2cc(F)c(F)cc2[n+]1=O ... active
8. O=c1oc2cc(OC/C(=N/O)c3ccc(F)cc3)ccc2c2ccccc12 ... inactive
9. CCCCCCCCCCCCCCCCOP(=O)([O-])OCC[N+](C)(C)C ... active
10. C=C1C(=O)O[C@H]2[C@H]1CC/C(COC(=O)OC/C1=C/CC[C@@]3(C)O[C@H]3[C@H]3OC(=O)[C@@H](CN(C)C)[C@@H]3CC1)=C\CC[C@@]1(C)O[C@@H]21 ... inactive

Request: Status in this test for CC(C)=CC(=O)N[C@H]1CC[C@]2(C)C3CC[C@]4(C)C(C(C)N(C)C)=CCC4C3CCC2[C@H]1O (stereo not given in full) ?
Result: inactive

Request: Another compound to check: O=C(/C=C1\C(=O)N(Cc2ccccc2)c2ccccc21)c1ccc(OCCN2CCCCC2)cc1
Result: inactive

Request: // next record C[n+]1c2ccccc2nc2ccccc21
Result: inactive

Request: // query: Nc1nc2cc(CC[C@H]3C[C@@H](n4ccc5c(N)ncnc54)[C@H](O)[C@@H]3O)ccc2cc1Br
Result: inactive

Request: Follow-up entry: Cn1c(-c2ccccc2)c(/C=C/C2=[N+](C)c3ccccc3C2(C)C)c2ccccc21
Result: inactive
